Literature-derived pKi for UniProt:P29274 follows.
Sequence (P29274 whole entry): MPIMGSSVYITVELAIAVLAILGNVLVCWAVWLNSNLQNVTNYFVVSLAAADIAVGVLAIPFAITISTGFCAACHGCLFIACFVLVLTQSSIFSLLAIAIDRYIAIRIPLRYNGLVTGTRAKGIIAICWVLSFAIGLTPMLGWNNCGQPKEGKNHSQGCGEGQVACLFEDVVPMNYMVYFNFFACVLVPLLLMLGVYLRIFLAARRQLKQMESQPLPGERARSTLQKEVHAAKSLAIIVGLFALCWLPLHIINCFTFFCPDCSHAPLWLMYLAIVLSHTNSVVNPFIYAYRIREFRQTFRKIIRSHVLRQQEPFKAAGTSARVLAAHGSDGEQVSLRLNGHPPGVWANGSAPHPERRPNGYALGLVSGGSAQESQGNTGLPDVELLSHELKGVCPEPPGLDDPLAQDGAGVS
pKi: −log10 of the molar value.
// F strictly below 6 in pKi; T otherwise

>>> assigned_class("CCCn1c(=O)n(C)c(=O)c2[nH]c(-c3ccc(OCC(=O)N4CCN(c5ccc(F)cc5)CC4)cc3)cc21")
"T"
>>> assigned_class("CCCn1c(=O)c2[nH]c(-c3ccc(OCC(=O)Nc4ccc(OC)nc4)cc3)cc2n(CCC)c1=O")
"T"
>>> assigned_class("CCn1nnc(-c2sc(NC(=O)C3CC3)nc2-c2ccccc2)n1")
"T"
>>> assigned_class("CCOC(=O)c1cnc(NC2CCCCCC2)n2nc(-c3ccco3)nc12")
"T"
>>> assigned_class("CCOC(=O)c1nc(NC(=O)c2ccccc2)nc2nn(CCc3ccccc3)cc12")
"F"
>>> assigned_class("CCNC(=O)c1cnn(-c2nc(NC3CCCC3)c3ncn([C@@H]4O[C@H](CO)[C@@H](O)[C@H]4O)c3n2)c1")
"F"
>>> assigned_class("Nc1nc(-c2ccco2)c2cnn(Cc3cccc(/C=C/C(=O)Nc4ccccc4N)c3)c2n1")
"T"
>>> assigned_class("Cc1cc(O)c2ccc(N)nc2n1")
"F"
>>> assigned_class("CCCOc1ccc(/C=N/Nc2nc(N)c3ncn([C@@H]4O[C@H](CO)[C@@H](O)[C@H]4O)c3n2)cc1")
"T"
>>> assigned_class("CCCn1c(=O)c2[nH]c(-c3cnn(Cc4noc(-c5cccc(C(F)(F)F)c5)n4)c3)nc2n(CCC)c1=O")
"F"
>>> assigned_class("CONC(=O)[C@H]1O[C@@H](n2cnc3c(NCc4cccc(I)c4)nc(Cl)nc32)[C@H](O)[C@@H]1O")
"F"
>>> assigned_class("CC(=O)Nc1cc(-c2cc(N3CCOCC3)ccn2)nc(-n2nc(C)cc2C)n1")
"T"
>>> assigned_class("CC(=O)Nc1cc(-c2ccccc2)nc(-n2nc(C)cc2C)n1")
"T"
>>> assigned_class("CCOC(=O)c1c(NC(=O)c2sc(NC(=O)OC)nc2N(C)C)sc2c1CCCC2")
"F"
>>> assigned_class("Nc1nc(C(=O)NCc2cccc3cccnc23)c2ccc(F)cc2n1")
"T"
>>> assigned_class("CC[C@H](C)Nc1nc2nn(C)cc2c2nc(-c3ccco3)nn12")
"T"
>>> assigned_class("O=C(Nc1nc(-c2ccccc2)nc2sc(-c3ccccc3)nc12)c1ccccc1")
"T"
>>> assigned_class("CC(C)NC(=O)N1CCC(NC(=O)Nc2nc3nn(C)cc3c3nc(-c4ccco4)nn23)CC1")
"F"
>>> assigned_class("CCCn1c(=O)c2[nH]c(-c3ccc(OCC(=O)Nc4ccc(C(C)=O)cc4)cc3)c(Cl)c2n(CCC)c1=O")
"T"
>>> assigned_class("Cc1noc(-c2sc(NC(=O)Cc3ccccc3)nc2-c2ccccc2)n1")
"T"
>>> assigned_class("CCCn1c(=O)c2[nH]c(-c3cnn(Cc4cc(Cl)ccc4Cl)c3)nc2n(CCC)c1=O")
"T"
>>> assigned_class("Cn1c(=O)c2[nH]c(Cc3ccco3)nc2n(Cc2ccco2)c1=O")
"T"
>>> assigned_class("C#CCn1c(=O)c2c(nc3ccccn32)n(Cc2ccccc2)c1=O")
"T"
>>> assigned_class("Nc1ncc(C(=O)NCCc2ccccc2)c2nc(-c3ccco3)nn12")
"T"
>>> assigned_class("O=c1oc2c(O)c(O)ccc2cc1-c1ccsc1")
"F"
>>> assigned_class("CNC(=O)[C@@]12C[C@@H]1[C@@H](n1cnc3c(NCc4cccc(Cl)c4)nc(N=[N+]=[N-])nc31)[C@H](O)[C@@H]2O")
"F"
>>> assigned_class("CNc1nc(-n2cc(-c3ccc(OC)cc3)cn2)nc2c1ncn2[C@@H]1O[C@H](CO)[C@@H](O)[C@H]1O")
"F"
>>> assigned_class("COc1ccc(-n2nc3c(N)nc(-c4ccccc4)cn3c2=O)cc1")
"T"
>>> assigned_class("COc1cccc2cc(C(N)=O)c(=N)oc12")
"T"
>>> assigned_class("CCn1cnc2c(N)ncnc21")
"F"
>>> assigned_class("CCOc1cccc2cc(-c3ccc([N+](=O)[O-])cc3)c(=O)oc12")
"F"
>>> assigned_class("Cc1ccc(C(=O)Nc2nc(Cl)c3cn(C)nc3n2)cc1")
"F"
>>> assigned_class("CCCn1c(=O)c2[nH]c(-c3cnn(Cc4cc(-c5ccccc5Cl)on4)c3)nc2n(CCC)c1=O")
"F"
>>> assigned_class("Nc1c(/C=N/c2ccccc2)ccc2c1C(=O)c1ccccc1C2=O")
"F"
>>> assigned_class("COc1ccccc1N1CCN(C(=O)COc2ccc(-c3cc4c([nH]3)c(=O)n(C)c(=O)n4C)cc2)CC1")
"F"
>>> assigned_class("CCOC(=O)c1nc(NC(=O)c2ccc(Br)cc2)nc2nn(CCc3ccccc3)cc12")
"F"
